SUBJECT_OF_TEST: T1, human IL-17A (human, UniProt Q16552 20-155, limits assumed)
T1 construct: Bought from R&D Systems; also called IL-17 antigen (human IL17A)
T1 sequence (looked up): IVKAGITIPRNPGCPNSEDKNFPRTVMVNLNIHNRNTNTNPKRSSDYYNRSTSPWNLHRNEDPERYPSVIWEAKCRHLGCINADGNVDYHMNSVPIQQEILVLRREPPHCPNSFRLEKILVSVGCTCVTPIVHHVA
EXPERIMENTAL_DETAILS: ELISA, human IL-17A coated at 1 ug/mL, anti-human IgG-HRP detection
READOUT: EC50 (ng/mL)
Please state the figure in ng/mL; there is no need to write the unit.

Item: PP10759 (antibody, human IgG4 S228P, kappa, V domains shown, expressed in HEK293; also called chimeric antibody PP10759; chimeric parental antibody) VH: EVQLVESGGGLVQPGGSLKLSCVASGFTFSTYGMSWVRQTPDKRLELVAIINHNGGSTFYPDSVKGRFTVSRDNAKNTLHLQMSSLKSEDTAMYYCARDPRHDGYFFDYWGQGTTLTVSS VL: DIQMTQSSPSFSVSLGDRVTITCKASEDIYDRLAWYQQKPGNAPRLLISGATSLETGIPSRFSGSRSGKDYTLDINSLQTEDAATYYCQQYWSVPWTFGGGTKLEIKR | EC50: 5.83

Item: PP10765 (antibody, human IgG4 S228P, kappa, V domains shown, Humanized, human IgG4/kappa; also called VH6666/VL6667) VH: EVQLVESGGGLVQPGGSLRLSCAASGFTFSTYGMSWVRQAPGKGLELVAIINHNGGSTFYPDSVKGRFTVSRDNSKNTLYLQMNSLRAEDTAVYYCARDPRHDGYFFDYWGQGTLVTVSS VL: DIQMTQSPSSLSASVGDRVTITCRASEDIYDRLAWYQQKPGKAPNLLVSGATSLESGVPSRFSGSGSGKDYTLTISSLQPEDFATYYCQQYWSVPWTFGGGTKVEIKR | EC50: 7.61

Item: PP10760 (antibody, human IgG4 S228P, kappa, V domains shown, Humanized, human IgG4/kappa; also called VH6665/VL6665) VH: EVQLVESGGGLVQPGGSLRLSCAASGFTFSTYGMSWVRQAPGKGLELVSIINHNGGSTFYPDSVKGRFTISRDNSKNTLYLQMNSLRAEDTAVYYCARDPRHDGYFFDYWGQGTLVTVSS VL: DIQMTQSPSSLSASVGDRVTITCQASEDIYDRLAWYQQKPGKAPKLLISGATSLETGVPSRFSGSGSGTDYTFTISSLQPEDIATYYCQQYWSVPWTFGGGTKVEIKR | EC50: 9.44

Item: PP10768 (antibody, human IgG4 S228P, kappa, V domains shown, Humanized, human IgG4/kappa; also called VH6667/VL6667) VH: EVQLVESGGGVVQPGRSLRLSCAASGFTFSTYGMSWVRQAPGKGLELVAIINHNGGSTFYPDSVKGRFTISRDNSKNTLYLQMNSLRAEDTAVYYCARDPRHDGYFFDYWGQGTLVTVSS VL: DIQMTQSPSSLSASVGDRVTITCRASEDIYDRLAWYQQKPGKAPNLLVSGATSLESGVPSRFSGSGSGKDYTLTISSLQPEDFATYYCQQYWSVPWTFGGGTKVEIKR | EC50: 7.67

Item: PP10764 (antibody, human IgG4 S228P, kappa, V domains shown, Humanized, human IgG4/kappa; also called VH6666/VL6666) VH: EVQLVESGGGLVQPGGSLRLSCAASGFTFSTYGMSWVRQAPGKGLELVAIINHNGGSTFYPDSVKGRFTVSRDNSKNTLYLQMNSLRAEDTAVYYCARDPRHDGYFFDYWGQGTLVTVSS VL: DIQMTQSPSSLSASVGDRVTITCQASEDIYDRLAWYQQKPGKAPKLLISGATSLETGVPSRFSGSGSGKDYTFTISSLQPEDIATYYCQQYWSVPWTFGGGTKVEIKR | EC50: 6.61

Item: PP10766 (antibody, human IgG4 S228P, kappa, V domains shown, Humanized, human IgG4/kappa; also called VH6667/VL6665) VH: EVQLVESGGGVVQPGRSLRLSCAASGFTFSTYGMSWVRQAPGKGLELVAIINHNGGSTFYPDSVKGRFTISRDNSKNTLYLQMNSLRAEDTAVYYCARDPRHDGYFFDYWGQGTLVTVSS VL: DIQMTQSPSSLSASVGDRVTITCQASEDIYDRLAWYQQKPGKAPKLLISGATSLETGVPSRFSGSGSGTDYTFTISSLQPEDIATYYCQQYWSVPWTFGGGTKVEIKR | EC50: 7.35

Item: PP10762 (antibody, human IgG4 S228P, kappa, V domains shown, Humanized, human IgG4/kappa; also called VH6665/VL6667) VH: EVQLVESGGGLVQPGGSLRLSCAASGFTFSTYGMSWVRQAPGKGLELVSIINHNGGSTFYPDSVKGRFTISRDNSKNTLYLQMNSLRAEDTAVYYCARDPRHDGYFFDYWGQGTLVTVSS VL: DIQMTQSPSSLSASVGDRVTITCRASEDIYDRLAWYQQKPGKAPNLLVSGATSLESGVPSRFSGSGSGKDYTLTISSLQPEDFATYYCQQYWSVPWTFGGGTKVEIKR | EC50: 8.26

Item: PP10767 (antibody, human IgG4 S228P, kappa, V domains shown, Humanized, human IgG4/kappa; also called VH6667/VL6666) VH: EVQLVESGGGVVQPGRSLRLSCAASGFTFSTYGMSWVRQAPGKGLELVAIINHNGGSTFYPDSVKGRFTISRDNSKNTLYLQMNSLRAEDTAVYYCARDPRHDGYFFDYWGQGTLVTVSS VL: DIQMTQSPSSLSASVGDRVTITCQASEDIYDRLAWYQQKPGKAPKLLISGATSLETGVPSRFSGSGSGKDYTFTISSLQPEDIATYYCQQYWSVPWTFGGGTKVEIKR | EC50: 7.71

Item: PP10761 (antibody, human IgG4 S228P, kappa, V domains shown, Humanized, human IgG4/kappa; also called VH6665/VL6666) VH: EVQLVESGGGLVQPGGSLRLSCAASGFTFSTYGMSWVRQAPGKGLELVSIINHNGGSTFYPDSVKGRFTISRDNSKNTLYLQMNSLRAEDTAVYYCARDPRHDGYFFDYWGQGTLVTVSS VL: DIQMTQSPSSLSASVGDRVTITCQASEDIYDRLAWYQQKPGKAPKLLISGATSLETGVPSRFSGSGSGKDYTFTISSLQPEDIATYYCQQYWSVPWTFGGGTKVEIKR | EC50: 8.72

Item: PP10763 (antibody, human IgG4 S228P, kappa, V domains shown, Humanized, human IgG4/kappa; also called VH6666/VL6665) VH: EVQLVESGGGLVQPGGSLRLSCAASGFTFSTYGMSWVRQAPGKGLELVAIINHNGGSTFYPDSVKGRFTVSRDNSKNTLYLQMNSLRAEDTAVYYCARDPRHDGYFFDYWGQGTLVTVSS VL: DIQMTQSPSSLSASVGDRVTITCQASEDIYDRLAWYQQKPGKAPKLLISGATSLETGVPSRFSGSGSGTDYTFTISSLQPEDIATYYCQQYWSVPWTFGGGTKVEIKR | EC50: 7.28
